The reported numbers originate from ChEMBL document CHEMBL3396949.

pIC50, Acetylcholinesterase (Electrophorus electricus, UniProt O42275): measured values
Entry type: numeric. Quantity: pIC50, the -log10 of concentration in molar units.

# example entries with known answers
c1ccc(CN2CCN(CCNCc3cccnc3)CC2)cc1 ... 6.85
COc1cc(CNCCCN2CCC(Cc3ccccc3)CC2)cc(OC)c1OC ... 8.07
COc1ccc(CNCCN2CCN(Cc3ccccc3)CC2)cc1OC ... 6.17
c1ccc(CC2CCN(CCCCNCc3cccnc3)CC2)cc1 ... 8.11

Exercise: pIC50 of "COc1cc(CNCCCCN2CCN(Cc3ccccc3)CC2)ccc1O" on Acetylcholinesterase (Electrophorus electricus, UniProt O42275)?
Solution: 6.86

Exercise: And "COc1ccc(CNCCCCN2CCN(Cc3ccccc3)CC2)cc1OC" ?
Solution: 6.79

====

# testName: Selectivity ratio of IC50 for equine serum BChE to IC50 for electric eel AChE
Please enter yes (1) where Ratio IC50 is greater than or equal to 0.8, and no (0) where it is lower.

Reference set (3 entries):
COc1cc(CNCCCCN2CCC(Cc3ccccc3)CC2)cc(OC)c1OC ... yes (1)
COc1ccc(CNCCN2CCC(Cc3ccccc3)CC2)cc1OC ... no (0)
c1ccc(CN2CCN(CCCNCc3cccnc3)CC2)cc1 ... yes (1)

Exercise: Identify whether the reported Ratio IC50 of the following compound is 0.8 or greater: "COc1cc(CNCCCCN2CCN(Cc3ccccc3)CC2)cc(OC)c1OC"
Solution: no (0)

Exercise: Would you mind doing "COc1cc(CNCCCN2CCC(Cc3ccccc3)CC2)cc(OC)c1OC" as well?
Solution: yes (1)

====

# assaySystem: UniProt:P05067
# testName: Ratio of curcumin to compound for self-mediated amyloid beta (1 to 42) (unknown origin) aggregation at 25 uM after 48 hrs by thioflavin T fluorescence assay relative to control
resultType: Ratio
Field format: numeric only.

Check out these entries, answers already filled in.
COc1ccc(CNCCCN2CCC(Cc3ccccc3)CC2)cc1OC ... 1.51
COc1ccc(CNCCN2CCN(Cc3ccccc3)CC2)cc1OC ... 1.71
COc1ccc(CNCCCCN2CCC(Cc3ccccc3)CC2)cc1OC ... 1.51

Exercise: # input compound: "c1ccc(CC2CCN(CCCCNCc3cccnc3)CC2)cc1" ; wanted: its Ratio
Solution: 1.51

====

# testName: Antioxidant activity assessed as trolox equivalent of AAPH radical scavenging activity at 1 to 10 uM preincubated for 15 mins followed by AAPH challenge measured every min for 80 mins by ORAC-FL assay
Hi! Could you tag entries with Activity below 2 equiv as true (1), and those at or above as false (0)? Much appreciated.

See these solved cases before continuing.
COc1cc(CNCCCCN2CCC(Cc3ccccc3)CC2)cc(OC)c1OC ... false (0)
COc1cc(CNCCN2CCN(Cc3ccccc3)CC2)cc(OC)c1OC ... false (0)

Exercise: I'd appreciate it if you could check whether "COc1cc(CNCCCCN2CCC(Cc3ccccc3)CC2)ccc1O" has Activity smaller than 2 equiv.
Solution: false (0)

Exercise: Repeat with "COc1ccc(CNCCCN2CCN(Cc3ccccc3)CC2)cc1OC"
Solution: true (1)

Exercise: Now consider "c1ccc(CN2CCN(CCCCNCc3cccnc3)CC2)cc1" and answer again.
Solution: true (1)

====

# assaySystem: Amyloid-beta precursor protein (Homo sapiens) (UniProt P05067)
# Sequence (P05067 whole entry): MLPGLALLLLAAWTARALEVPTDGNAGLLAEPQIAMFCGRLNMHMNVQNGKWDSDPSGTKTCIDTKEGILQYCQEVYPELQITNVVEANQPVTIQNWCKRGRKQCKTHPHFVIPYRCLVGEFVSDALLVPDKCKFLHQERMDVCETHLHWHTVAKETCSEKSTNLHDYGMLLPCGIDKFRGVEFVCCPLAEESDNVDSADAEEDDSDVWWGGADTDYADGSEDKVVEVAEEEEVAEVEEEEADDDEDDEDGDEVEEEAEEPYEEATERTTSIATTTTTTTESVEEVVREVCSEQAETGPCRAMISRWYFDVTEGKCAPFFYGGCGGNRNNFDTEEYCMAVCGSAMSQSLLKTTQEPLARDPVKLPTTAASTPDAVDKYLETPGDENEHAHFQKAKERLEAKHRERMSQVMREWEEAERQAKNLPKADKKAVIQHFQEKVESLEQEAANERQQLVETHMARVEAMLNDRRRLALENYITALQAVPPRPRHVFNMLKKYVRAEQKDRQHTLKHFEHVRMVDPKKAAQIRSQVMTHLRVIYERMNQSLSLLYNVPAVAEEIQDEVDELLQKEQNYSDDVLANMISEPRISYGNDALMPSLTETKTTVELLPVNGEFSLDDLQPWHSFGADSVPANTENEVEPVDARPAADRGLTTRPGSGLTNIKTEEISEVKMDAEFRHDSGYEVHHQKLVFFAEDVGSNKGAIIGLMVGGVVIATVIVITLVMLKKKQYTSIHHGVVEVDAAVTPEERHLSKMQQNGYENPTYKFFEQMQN
# testName: Inhibition of self-mediated amyloid beta (1 to 42) (unknown origin) aggregation at 25 uM after 48 hrs by thioflavin T fluorescence assay relative to control
resultType: inhibition (%)
Numeric only. Scale: %

Examples from the recorded data:
c1ccc(CC2CCN(CCNCc3cccnc3)CC2)cc1 ... 84.4
COc1cc(CNCCCN2CCC(Cc3ccccc3)CC2)cc(OC)c1OC ... 78.2

Exercise: Recall the recorded inhibition for "COc1ccc(CNCCCCN2CCN(C(c3ccccc3)c3ccccc3)CC2)cc1OC" with Amyloid-beta precursor protein (Homo sapiens) (UniProt P05067) and state it.
Solution: 57.8

Exercise: Repeat for the following molecule: "COc1cc(CNCCN2CCC(Cc3ccccc3)CC2)cc(OC)c1OC"
Solution: 75

Exercise: Further, for "COc1cc(CNCCN2CCN(C(c3ccccc3)c3ccccc3)CC2)ccc1O" ?
Solution: 43.5

Exercise: Same again, this time with "COc1ccc(CNCCCCN2CCN(Cc3ccccc3)CC2)cc1OC"
Solution: 67.7

====

# testName: Selectivity ratio of IC50 for equine serum BChE to IC50 for electric eel AChE
So basically every entry gets a class from its Ratio IC50, ranges being bottom range (below 0.2), center range (0.2 to below 1), top range (1 or more)

For orientation, consider the following solved cases.
c1ccc(CN2CCN(CCNCc3cccnc3)CC2)cc1 ... center range
COc1ccc(CNCCCCN2CCC(Cc3ccccc3)CC2)cc1OC ... center range
c1ccc(CC2CCN(CCNCc3cccnc3)CC2)cc1 ... top range
COc1ccc(CNCCCN2CCC(Cc3ccccc3)CC2)cc1OC ... top range
COc1cc(CNCCN2CCC(Cc3ccccc3)CC2)cc(OC)c1OC ... top range
COc1ccc(CNCCCCN2CCN(Cc3ccccc3)CC2)cc1OC ... center range

Now turn to the next molecule.
Exercise: Please classify: "COc1cc(CNCCCCN2CCN(Cc3ccccc3)CC2)ccc1O"
Solution: bottom range

====

# assaySystem: Amyloid-beta precursor protein (Homo sapiens) (UniProt P05067)
# testName: Inhibition of self-mediated amyloid beta (1 to 42) (unknown origin) aggregation at 25 uM after 48 hrs by thioflavin T fluorescence assay relative to control
resultType: inhibition (%)
Value expressed in %; do not type the unit.

Recorded results for 2 compounds are shown here.
COc1cc(CNCCN2CCN(C(c3ccccc3)c3ccccc3)CC2)cc(OC)c1OC ... 68.7
c1ccc(CC2CCN(CCCCNCc3cccnc3)CC2)cc1 ... 78.6

Exercise: Reported inhibition for Amyloid-beta precursor protein (Homo sapiens) (UniProt P05067), given "COc1ccc(CNCCCN2CCN(Cc3ccccc3)CC2)cc1OC" ?
Solution: 79.7

Exercise: And what about the compound "COc1cc(CNCCCCN2CCC(Cc3ccccc3)CC2)ccc1O" ?
Solution: 71.3

Exercise: Same read-out for "COc1cc(CNCCCN2CCN(Cc3ccccc3)CC2)cc(OC)c1OC" ?
Solution: 79.7

Exercise: Again, but for "COc1cc(CNCCCN2CCC(Cc3ccccc3)CC2)ccc1O"
Solution: 88

====

# assaySystem: Cholinesterase (Equus caballus)
# Sequence (P81908 whole entry): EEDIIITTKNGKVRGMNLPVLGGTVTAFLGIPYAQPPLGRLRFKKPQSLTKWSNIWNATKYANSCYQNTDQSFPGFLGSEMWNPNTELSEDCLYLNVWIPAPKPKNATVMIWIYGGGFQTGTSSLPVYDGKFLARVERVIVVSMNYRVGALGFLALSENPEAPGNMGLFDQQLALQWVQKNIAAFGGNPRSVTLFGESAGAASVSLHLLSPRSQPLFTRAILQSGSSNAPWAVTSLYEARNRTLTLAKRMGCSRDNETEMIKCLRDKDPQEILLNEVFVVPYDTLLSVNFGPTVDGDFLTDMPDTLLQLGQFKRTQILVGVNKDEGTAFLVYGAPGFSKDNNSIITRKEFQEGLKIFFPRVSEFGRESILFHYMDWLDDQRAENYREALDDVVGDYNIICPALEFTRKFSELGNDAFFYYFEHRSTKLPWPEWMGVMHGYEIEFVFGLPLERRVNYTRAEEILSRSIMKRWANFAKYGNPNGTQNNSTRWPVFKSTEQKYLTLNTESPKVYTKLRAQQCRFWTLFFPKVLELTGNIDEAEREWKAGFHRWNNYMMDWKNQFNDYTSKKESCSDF
# testName: Inhibition of equine serum BChE using butyrylthiocholine iodide as substrate incubated for 5 mins by Ellman's method
pIC50: −log10 of the molar value.
Kindly return Y if reported pIC50 is no lower than 7; return N if it is lower.

COc1ccc(CNCCCN2CCC(Cc3ccccc3)CC2)cc1OC ... N
COc1cc(CNCCN2CCC(Cc3ccccc3)CC2)cc(OC)c1OC ... Y
COc1cc(CNCCCCN2CCN(Cc3ccccc3)CC2)cc(OC)c1OC ... Y
COc1cc(CNCCCN2CCC(Cc3ccccc3)CC2)cc(OC)c1OC ... Y

Exercise: Hi team, for "COc1cc(CNCCCCN2CCN(Cc3ccccc3)CC2)ccc1O" , is the recorded pIC50 at or above 7?
Solution: Y

Exercise: Same lookup for "COc1ccc(CNCCCN2CCN(Cc3ccccc3)CC2)cc1OC" , please.
Solution: N

Exercise: Same lookup for "COc1cc(CNCCCN2CCC(Cc3ccccc3)CC2)ccc1O" , please.
Solution: Y

Exercise: And for "COc1cc(CNCCCCN2CCC(Cc3ccccc3)CC2)ccc1O" ?
Solution: Y

Exercise: Thanks! And "c1ccc(CC2CCN(CCCCNCc3cccnc3)CC2)cc1" ?
Solution: Y

Exercise: Param item: "COc1cc(CNCCCN2CCN(Cc3ccccc3)CC2)ccc1O"
Solution: Y

Exercise: Similarly, "COc1ccc(CNCCN2CCN(Cc3ccccc3)CC2)cc1OC" ?
Solution: N

Exercise: Also, "COc1cc(CNCCCN2CCN(Cc3ccccc3)CC2)cc(OC)c1OC" please.
Solution: Y

Exercise: Would you kindly repeat that for "COc1cc(CNCCCCN2CCC(Cc3ccccc3)CC2)cc(OC)c1OC" ?
Solution: Y

Exercise: Next: "c1ccc(CN2CCN(CCCNCc3cccnc3)CC2)cc1"
Solution: N

Exercise: Can you check "COc1cc(CNCCN2CCN(Cc3ccccc3)CC2)ccc1O" next?
Solution: Y

Exercise: What do you get for "COc1ccc(CNCCCCN2CCC(Cc3ccccc3)CC2)cc1OC" ?
Solution: Y

Exercise: And the next one, "COc1cc(CNCCN2CCC(Cc3ccccc3)CC2)ccc1O" ?
Solution: Y

====

# assaySystem: Amyloid-beta precursor protein (Homo sapiens) (UniProt P05067)
# testName: Inhibition of self-mediated amyloid beta (1 to 42) (unknown origin) aggregation at 25 uM after 48 hrs by thioflavin T fluorescence assay relative to control
Quick list: inhibition per entry.
# output: bare number, implied unit %

COc1cc(CNCCCN2CCN(C(c3ccccc3)c3ccccc3)CC2)cc(OC)c1OC ... 68.2
COc1cc(CNCCN2CCN(Cc3ccccc3)CC2)ccc1O ... 71.9
c1ccc(CN2CCN(CCCCNCc3cccnc3)CC2)cc1 ... 69.3
COc1ccc(CNCCCCN2CCC(Cc3ccccc3)CC2)cc1OC ... 80.7
COc1cc(CNCCCCN2CCN(Cc3ccccc3)CC2)ccc1O ... 72.4

Field: next compound
Exercise: Item under review: "COc1cc(CNCCN2CCC(Cc3ccccc3)CC2)ccc1O" . Reported inhibition?
Solution: 84.4
